pIC50 for assorted compounds
- target.or.test.system: Phosphatidylinositol 4,5-bisphosphate 3-kinase catalytic subunit gamma isoform (Homo sapiens)
- Sequence (P48736 whole entry, canonical isoform): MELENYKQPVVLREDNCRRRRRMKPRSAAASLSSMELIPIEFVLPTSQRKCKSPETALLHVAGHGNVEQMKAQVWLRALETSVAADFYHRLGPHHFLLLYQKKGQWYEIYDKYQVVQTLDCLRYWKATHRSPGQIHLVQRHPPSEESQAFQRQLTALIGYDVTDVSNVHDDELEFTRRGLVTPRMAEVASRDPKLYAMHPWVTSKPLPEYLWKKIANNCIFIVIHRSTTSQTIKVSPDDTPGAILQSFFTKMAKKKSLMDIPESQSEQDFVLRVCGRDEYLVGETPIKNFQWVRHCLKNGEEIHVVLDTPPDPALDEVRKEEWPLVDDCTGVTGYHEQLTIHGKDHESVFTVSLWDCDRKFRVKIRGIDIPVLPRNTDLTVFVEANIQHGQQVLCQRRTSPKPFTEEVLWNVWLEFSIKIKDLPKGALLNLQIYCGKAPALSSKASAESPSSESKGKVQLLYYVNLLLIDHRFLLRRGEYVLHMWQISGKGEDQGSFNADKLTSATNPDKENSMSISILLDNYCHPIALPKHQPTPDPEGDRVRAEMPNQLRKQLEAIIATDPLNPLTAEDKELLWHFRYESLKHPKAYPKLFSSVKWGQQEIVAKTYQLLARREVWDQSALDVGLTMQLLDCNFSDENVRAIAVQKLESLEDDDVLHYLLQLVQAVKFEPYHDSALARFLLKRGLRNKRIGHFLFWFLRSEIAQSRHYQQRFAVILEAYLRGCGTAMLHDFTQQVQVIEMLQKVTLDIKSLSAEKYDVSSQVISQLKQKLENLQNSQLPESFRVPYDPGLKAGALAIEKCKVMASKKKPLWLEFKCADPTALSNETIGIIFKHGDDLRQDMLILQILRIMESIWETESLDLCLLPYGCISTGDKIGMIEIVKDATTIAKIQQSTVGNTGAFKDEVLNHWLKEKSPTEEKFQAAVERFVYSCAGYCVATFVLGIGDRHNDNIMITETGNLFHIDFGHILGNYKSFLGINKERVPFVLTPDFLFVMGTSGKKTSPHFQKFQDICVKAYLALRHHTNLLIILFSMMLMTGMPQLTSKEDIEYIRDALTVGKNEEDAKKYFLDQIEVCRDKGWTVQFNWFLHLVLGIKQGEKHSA
- test: Inhibition of recombinant human C-terminal His6-tagged p110gamma expressed in insect cells using phosphatidylinositol as substrate in presence of gamma-32P-ATP after 5 mins by thin layer chromatographic method
pIC50: −log10 of the molar value.

These solved cases illustrate the format of a correct answer.
| compound | result |
| --- | --- |
| Cc1cccc2cc([C@H](C)Nc3ncnc4[nH]cnc34)n(-c3cccc(F)c3)c(=O)c12 | > 7.00 |
| Cc1cccc2cc(C(C)Nc3ncnc4[nH]cnc34)n(-c3ccc(F)cc3)c(=O)c12 (centres undefined) | > 7.00 |
| Cc1cccc2cc([C@H](C)Nc3nc(Cl)nc4[nH]cnc34)n(-c3ccccc3)c(=O)c12 | > 7.00 |
| Cc1cccc2cc([C@H](C)Nc3ncnc4[nH]cc(Br)c34)n(-c3ccccc3)c(=O)c12 | > 7.00 |
| Cc1cccc2cc(Cn3nc(-c4ccc5oc(N)nc5c4)c4c(N)ncnc43)n(C3CC3)c(=O)c12 | > 7.00 |
| Cc1ccccc1-n1c(Cn2nc(/C=C/C(=O)N3CCOCC3)c3c(N)ncnc32)cc2cccc(C)c2c1=O | < 5.00 |
| Cc1cccc2cc([C@H](C)Nc3nc(N)nc4[nH]cnc34)n(-c3ccccc3)c(=O)c12 | > 7.00 |
| Cc1ccccc1-n1c(Cn2nc(CCC(N)=O)c3c(N)ncnc32)cc2cccc(C)c2c1=O | > 5.00 |

[ask] Quick check: pIC50 of `Cc1cccc2cc(Cn3nc(/C=C4/CCNC4=O)c4c(N)ncnc43)n(-c3ccccc3F)c(=O)c12` ?
[reply] < 5.00
